Where do these numbers come from? They come from patent US10744109B2.

Consider the following molecules; for each one, report its Tmax.
assayComment: Study of pharmacokinetics, intramuscular injection in male rats
Assay type: in vivo
measurementSetup: whole blood, im, rat, intramuscular injection of oil suspension of formula (I), 51.4 μM/Kg
Field note: include the unit after the figure.

C[C@@]12CCCCC[C@@H](Cc3c(F)cc(O)cc31)[C@@H]2N | 2 h

Tmax for `C[C@@]12CCCCC[C@@H](Cc3c(F)cc(OC(=O)CCCCCCCCC(=O)Oc4cc(F)c5c(c4)[C@@]4(C)CCCCC[C@@H](C5)[C@@H]4N)cc31)[C@@H]2N` ?
0.25 h

---

assayComment: Study of pharmacokinetics, intramuscular injection in male rats
Type: in vivo
measurementSetup: whole blood, im, rat, intramuscular injection of oil suspension of formula (I), 51.4 μM/Kg
readoutName: AUC(0-inf)
Field note: include the unit after the figure.

AUC(0-inf) for `C[C@@]12CCCCC[C@@H](Cc3c(F)cc(O)cc31)[C@@H]2N` ?
10.4 µM·h

---

assayComment: Study of pharmacokinetics, intramuscular injection in male rats
Format: in vivo
measurementSetup: whole blood, im, rat, intramuscular injection of aqueous suspension of formula (I), 17.5 μM/Kg, 25 μm/mL, 1% Tween 20, 7.5% PEG 1000, 0.75% citric acid monohydrate
readoutName: Cmax (nM)
Give bare numbers, in nM.

Cmax for `C[C@@]12CCCCC[C@@H](Cc3c(F)cc(O)cc31)[C@@H]2N` ?
438

---

assayComment: Study of pharmacokinetics, intramuscular injection in male rats
Format: in vivo
measurementSetup: whole blood, im, rat, intramuscular injection of oil suspension of formula (I), 51.4 μM/Kg, 44.50 mg/mL, 0.25% Tween 80, medium chain triglyceride
Consider the following compounds; for each one, report its Cmax.

C[C@@]12CCCCC[C@@H](Cc3c(F)cc(O)cc31)[C@@H]2N [formula (II)] | 378 nM

Now, please, on to the next compound.
Cmax for C[C@@]12CCCCC[C@@H](Cc3c(F)cc(OC(=O)CCCCCCCCC(=O)Oc4cc(F)c5c(c4)[C@@]4(C)CCCCC[C@@H](C5)[C@@H]4N)cc31)[C@@H]2N [formula (I)] ?
5.05 nM

---

assayComment: Study of pharmacokinetics, intramuscular injection in male rats
Format: in vivo
measurementSetup: whole blood, im, rat, intramuscular injection of oil suspension of formula (I), 51.4 μM/Kg, read-out: AUC0=last
Consider the following molecules; for each one, report its AUC.
Answers are plain numbers, in µM·h.

C[C@@]12CCCCC[C@@H](Cc3c(F)cc(O)cc31)[C@@H]2N [formula (II)] | 10.1

AUC for C[C@@]12CCCCC[C@@H](Cc3c(F)cc(OC(=O)CCCCCCCCC(=O)Oc4cc(F)c5c(c4)[C@@]4(C)CCCCC[C@@H](C5)[C@@H]4N)cc31)[C@@H]2N [formula (I)] ?
0.11
